Please go through the items and note down their EC50.
target: κ-opioid receptor (Homo sapiens (Human)); test: κ-opioid receptor [35S]GTPγS functional assay, HEK-293 or CHO cells (Table 4); assay type: biochemical; details: κ GTP
One number for each entry, in nM.

Some compounds with recorded EC50:
| compound | reportedMeasurement |
| --- | --- |
| NC(=O)[C@@H]1C[C@]23CCN(CC4CC4)[C@H](Cc4ccc(O)cc42)[C@]3(O)C1 [Compound 31] | 6.95 |
| O=C(NCCN1CCOCC1)[C@H]1C[C@]23CCN(CC4CC4)[C@H](Cc4ccc(O)cc42)[C@]3(O)C1 [Compound 93] | 1.52 |
| O=C(NCc1ccc(Cl)c(Cl)c1)[C@@H]1C[C@]23CCN(CC4CC4)[C@H](Cc4ccc(O)cc42)[C@]3(O)C1 [Compound 46] | 0.2 |
| N[C@@H]1CC23CCN(CC4CC4)[C@H](Cc4ccc(O)cc42)[C@]3(O)C1 (stereo in doubt) [Compound 22] | 25.7 |
| O=C(O)[C@@H]1C[C@]23CCN(CC4CC4)[C@H](Cc4ccc(O)cc42)[C@]3(O)C1 [Compound 16] | 12.4 |
| N=C(N)NCCCCNC(=O)[C@@H]1C[C@]23CCN(CC4CC4)[C@H](Cc4ccc(O)cc42)[C@]3(O)C1 [Compound 7] | 0.8 |
| O=C(NCc1ccccc1)[C@@H]1C[C@]23CCN(CC4CC4)[C@H](Cc4ccc(O)cc42)[C@]3(O)C1 [Compound 33] | 7.03 |
| O=C(NCc1ccc(Cl)c(Cl)c1)[C@H]1C[C@]23CCN(CC4CC4)[C@H](Cc4ccc(O)cc42)[C@]3(O)C1 [Compound 47] | 0.03 |

Provide the reported EC50 of each entry below, same order.
1. O=C(NCc1ccc(O)cc1O)[C@H]1C[C@]23CCN(CC4CC4)[C@H](Cc4ccc(O)cc42)[C@]3(O)C1 [Compound 42]
2. O=C(NCc1ccc(O)cc1O)[C@@H]1C[C@]23CCN(CC4CC4)[C@H](Cc4ccc(O)cc42)[C@]3(O)C1 [Compound 41]

1: 0.32; 2: 1.74
